- assay.text: Pharmacokinetics of Compound 4 in mice (IV and PO)
- Type: in vivo, BALB/c nude female mice
- condition.notes: female, BALB/c nude, mouse, plasma, intravenous, 2 mg/kg, 2 mg/kg IV, 4 hr, mean; read-out: Plasma concentration Mean IV
reported.endpoint: concentration at 4 hr (ng/mL)

compound: NCCCOc1cc2ccccc2cc1C(=O)NCCCOc1cc2ccccc2cc1C(=O)Nc1ccc(Cl)cc1O [Compound 4]
reported.endpoint: concentration at 4 hr
meas.value: 63

* * *

- assay.text: Pharmacokinetics of Compound 4 in mice (IV and PO)
- Format: in vivo, BALB/c nude female mice
- condition.notes: female, BALB/c nude, mouse, plasma, oral, 20 mg/kg, 20 mg/kg PO, 12 hr, G5; read-out: Plasma concentration G5

smiles.record: NCCCOc1cc2ccccc2cc1C(=O)NCCCOc1cc2ccccc2cc1C(=O)Nc1ccc(Cl)cc1O
unit.info: ng/mL
concentration at 12 hr: 47.6
